Listing of recorded melting point by entry.
The answer is to be given in °C; state only the numeric part.

Guide cases for melting point, answers given:
Cc1ccc(C)c(N2CCN(CC[C@H]3CC[C@H](NC(=O)CCCC#N)CC3)CC2)c1 [Example 413]
158
CC(=O)CN1CCC(CCN2CCN(c3cc(Cl)cc(Cl)c3)CC2)CC1 [Example 311]
126
CC(=O)CN1CCC(CCN2CCN(c3ccc(C(F)(F)F)cc3)CC2)CC1 [Example 587]
104
N#CCCCC(=O)N[C@H]1CC[C@H](CCN2CCN(c3cccc4ncccc34)CC2)CC1 [Example 321]
155
CCC(O)c1cccc(N2CCN(CC[C@H]3CC[C@H](NC(=O)CCCC#N)CC3)CC2)c1 (some centres unmarked) [Example 540]
151

The compound identified as O=C(CC(F)(F)F)N[C@H]1CC[C@H](CCN2CCN(c3cc(C(F)(F)F)ccc3F)CC2)CC1 [Example 670] registered its melting point at 177

Entry "Cl.Cl.O=C(CN1CCC(CCN2CCN(c3cccc(C(F)(F)F)c3)CC2)CC1)c1ccccc1" , melting point reported as 260

Lab book: melting point of N#CCC(=O)N[C@H]1CC[C@@H](CCN2CCN(c3ccc(C(F)(F)F)cc3)CC2)CC1 [Example 613] noted as 156

---

Rule: melting point below 200 °C gives Yes. Equal to or above 200 °C gives No.

O=C(N[C@H]1CC[C@H](CCN2CCN(c3ccc(Cl)cc3F)CC2)CC1)C1=CCCC1
No

Now consider a different compound.
Take the compound "N#CCC(=O)N[C@H]1CC[C@H](CCN2CCN(c3cccc(SC(F)(F)F)c3)CC2)CC1" and say whether its melting point is less than 200 °C.
Yes

---

Reported melting point values for a set of compounds
State just the number; it will be interpreted in °C.

Examples from the recorded data:
CC(=O)CN1CCC(CCN2CCN(c3cccc(Cc4ccccc4)c3)CC2)CC1.Cl.Cl
253
COCCCC(=O)N[C@H]1CC[C@H](CCN2CCN(c3cc(F)c(F)c(F)c3)CC2)CC1 [Example 568]
194
N#CCCCC(=O)N[C@H]1CC[C@H](CCN2CCN(c3cc(F)ccc3F)CC2)CC1 [Example 442]
159
CCC(O)c1cccc(N2CCN(CCC3CCN(CC(C)=O)CC3)CC2)c1 (stereo not drawn) [Example 607]
83

// recorded melting point for CC(O)c1cccc(N2CCN(CC[C@H]3CC[C@H](NC(=O)CC(F)(F)F)CC3)CC2)c1 (stereo partly drawn) [Example 477] : 190

For reference, reported melting point for O=C(N[C@H]1CC[C@H](CCN2CCN(c3cccc(C(F)(F)F)c3)CC2)CC1)C(F)F [Example 44] stands at 128

Record summary for "N#CCCCC(=O)N[C@H]1CC[C@H](CCN2CC=C(c3cccc(C(F)(F)F)c3)CC2)CC1" : reported melting point = 102

For record N#CCCCC(=O)N[C@H]1CC[C@H](CCN2CCN(c3ccccc3Cl)CC2)CC1 [Example 233] the listed melting point is 142

---

Property: pKi; scope: individual compounds
# Study System: human D3 receptor (Homo sapiens)
# Sequence (P35462 whole entry): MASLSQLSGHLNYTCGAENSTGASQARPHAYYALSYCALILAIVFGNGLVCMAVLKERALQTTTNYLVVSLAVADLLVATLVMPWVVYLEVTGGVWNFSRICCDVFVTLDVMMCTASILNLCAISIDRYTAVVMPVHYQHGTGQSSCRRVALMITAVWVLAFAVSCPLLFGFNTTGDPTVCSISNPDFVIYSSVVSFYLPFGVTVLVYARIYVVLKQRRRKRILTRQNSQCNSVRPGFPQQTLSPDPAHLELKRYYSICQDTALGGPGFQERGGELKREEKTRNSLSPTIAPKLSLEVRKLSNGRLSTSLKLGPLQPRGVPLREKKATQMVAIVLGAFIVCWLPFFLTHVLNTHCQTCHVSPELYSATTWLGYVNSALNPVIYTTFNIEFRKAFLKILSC
# Assay Notes: [3H]spiperone binding, membranes of CHO cells transfected with human D3 receptor cDNA
# Settings: affinity for the human D3 receptor; [3H]spiperone 0.5-2 nM, CHO-hD3 membranes, 60 minutes at room temperature
Counter-ions that a name gives are not always drawn.
Remember the convention: pKi equals -log10 of concentration in molar.

Reference set, count: 8
O=C(N[C@H]1CC[C@H](CCN2CCN(c3ccccn3)CC2)CC1)C1CC=CC1
7.50
CC(=O)C(=O)N1CCC(CCN2CCN(c3cccc(C(F)(F)F)c3)CC2)CC1 [Example 2, hydrochloride]
8.18
O=C(C=C1CCC(CCN2CCN(c3cccc(C(F)(F)F)c3)CC2)CC1)N1CCCC1 (stereo not drawn)
8.36
N#CCNC(=O)CC1CCC(CCN2CCN(c3ccccc3F)CC2)CC1 (mixture of isomers)
8.46
CC(=O)NCC(=O)N1CCC(CCN2CCN(c3cccc(C(F)(F)F)c3)CC2)CC1
7.82
COCC(=O)N[C@H]1CC[C@H](CCN2CC=C(c3cccc(C)c3C#N)CC2)CC1
7.74
Cl.N#CCC(=O)N1CCC(CCN2CCN(c3cccc(C(F)(F)F)c3)CC2)CC1 [Example 15, hydrochloride]
7.82
CC(=O)CN1CCC(CCN2CCN(c3cccc4ccccc34)CC2)CC1.Cl.Cl
8.88

Consider CC(=O)CC1CCC(CCN2CCN(c3ccccc3F)CC2)CC1.Cl (mixture of isomers) . Its measured pKi is 8.68

Entry under test: COc1ccccc1N1CCN(CCC2CCN(CC(C)=O)CC2)CC1.Cl.Cl [Example 20, dihydrochloride] . Its pKi was 8.02

Entry O=C(CO)N[C@H]1CC[C@H](CCN2CCN(c3cccc(C(F)(F)F)c3)CC2)CC1 [Example 46, hydrochloride] — recorded pKi = 7.92

Note to self: pKi recorded for COCC(=O)NC1CCC(CCN2CCC(c3cccc(C(F)(F)F)c3)CC2)CC1 (mixture of isomers) was 8.07

Values were extracted from patent US8802678B2.
